Cited source: patent US20260028389A1

This listing pairs binders with measured Kd.
molecular target: T1, recombinant human KLK5 C-6His (Novoprotein, Catalog No. C415) (human, UniProt Q9Y337 23-293); assay: SPR Biacore T200, polypeptide captured by anti-human IgG Fc, KLK5 as analyte, pH 7.4, steady state affinity fit
T1 construct: Bought protein; also called KLK5 protein (Novoprotein); not shown: C-terminal 6xHis tag ('C-6His')
Write the value in nM as a bare number.

Past entries and their recorded results:
Spink9 WT (Fc fusion, not shown: The C-terminal IgG Fc fragment of the wild-type fusion) IECAKQTKQMVDCSHYKKLPPGQQRFCHHMYDPICGSDGKTYKNDCFFCSKVKKTDGTLKFVHFGKC : 99
Spink9-183.Fc (SEQ ID NO: 57) (Fc fusion, Mutant SPINK9 domain fused directly to a C-terminal IgG Fc) IECAKQTKQMVDCSHYKKLPPQQQAYCTRDYDPICGSDGKTYKNDCFFCSKVKKTDGTLKFVHFGKCEPKSCDKTHTCPPCPAPEAAGGPSVFLFPPKPKDTLMISRTPEVTCVVVDVSHEDPEVKFNWYVDGVEVHNAKTKPREEQYNSTYRVVSVLTVLHQDWLNGKEYKCKVSNKALPAPIEKTISKAKGQPREPQVYTLPPSREEMTKNQVSLTCLVKGFYPSDIAVEWESNGQPENNYKTTPPVLDSDGSFFLYSKLTVDKSRWQQGNVFSCSVLHEALHSHYTQKSLSLSPGK : 0.0216
Spink9-236.Fc (SEQ ID NO: 60) (Fc fusion, Mutant SPINK9 domain fused directly to a C-terminal IgG Fc) IECAKQTKQMVDCSHYKKLPPEQQLMCTREYDPICGSDGKTYKNDCFFCSKVKKTDGTLKFVHFGKCEPKSCDKTHTCPPCPAPEAAGGPSVFLFPPKPKDTLMISRTPEVTCVVVDVSHEDPEVKFNWYVDGVEVHNAKTKPREEQYNSTYRVVSVLTVLHQDWLNGKEYKCKVSNKALPAPIEKTISKAKGQPREPQVYTLPPSREEMTKNQVSLTCLVKGFYPSDIAVEWESNGQPENNYKTTPPVLDSDGSFFLYSKLTVDKSRWQQGNVFSCSVLHEALHSHYTQKSLSLSPGK : 0.0291

Let us move to another entry and its Kd.
Ask: GET /values?readout=Kd&item= Spink9-186.Fc (SEQ ID NO: 58) (Fc fusion, Mutant SPINK9 domain fused directly to a C-terminal IgG Fc) IECAKQTKQMVDCSHYKKLPPAQLIYCTKEYDPICGSDGKTYKNDCFFCSKVKKTDGTLKFVHFGKCEPKSCDKTHTCPPCPAPEAAGGPSVFLFPPKPKDTLMISRTPEVTCVVVDVSHEDPEVKFNWYVDGVEVHNAKTKPREEQYNSTYRVVSVLTVLHQDWLNGKEYKCKVSNKALPAPIEKTISKAKGQPREPQVYTLPPSREEMTKNQVSLTCLVKGFYPSDIAVEWESNGQPENNYKTTPPVLDSDGSFFLYSKLTVDKSRWQQGNVFSCSVLHEALHSHYTQKSLSLSPGK
Result: 0.0189
